assay: blockers of Ca2+-induced mitochondrial swelling – biochemical, isolated mouse mitochondria, absorbance, primary screen (AID 602449); details: 30 min, at 10 µM;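 also: 0% = DMSO wells given calcium and 100% = 1 mM EGTA wells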
Out of some 360,000 compounds screened, about 5,000 (1.4%) were called active.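 The calls were made as follows: active = inhibition of 50% or more, scaled per plate between neutral and stimulator controls; inactive = the rest.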 Many of the other results were omitted from the sample, so actives are more common in it than they were.
Please reply with one of these outcomes: Y (active), N (inactive)

Example results:
molecule: CC1(C)CCSC(/C=C/c2ccccc2)=N1
cat: N
--
molecule: Cn1nccc1NC(=O)Nc1ccc(OC(F)(F)F)cc1
cat: Y
--
molecule: O=C(COc1ccc(NC(=O)c2ccccc2[N+](=O)[O-])cc1)c1ccc(F)cc1
cat: N
--
molecule: COc1cc(C)c(Cl)cc1S(=O)(=O)n1ccnc1
cat: N
--
molecule: CCN(CC)CCCN1C(=O)C(=O)/C(=C(/O)c2c(C)nc3ccccn23)C1c1ccc(C)o1 (stereo unspecified)
cat: N
--
molecule: Cc1c(Cl)cccc1NC(=O)NCCCN1CCCC1=O
cat: N
--
molecule: O=C(CN(c1cccc(Cl)c1)S(=O)(=O)c1ccccc1)NN=C1CCCC1
cat: N
--
molecule: Cc1ccc(OS(=O)Nc2cccc3nccnc23)cc1 (stereo unspecified)
cat: N
--
molecule: COc1ccc(N2CCN(CCCNC(=O)C3CCN(S(=O)(=O)N4CCOCC4)CC3)CC2)cc1
cat: N
--
molecule: CCn1c(NC(=O)c2ccccc2)c(-c2cccs2)c(=O)c2ccccc21
cat: N

Please turn your attention to the following entry.
Outcome? `O=C1CCCN1CCCNC(=S)Nc1ccc(F)c(Cl)c1`
Y

====

Reported inhibition values follow for various compounds
assay: blockers of Ca2+-induced mitochondrial swelling – biochemical, isolated mouse mitochondria, absorbance, primary screen (AID 602449); conditions: 30 min, at 10 µM, hits give high values;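 also: 0% = DMSO wells given calcium and 100% = 1 mM EGTA wells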
About 5,000 (1.4%) of roughly 360,000 compounds were called active. Only a selection was taken, and actives are over-represented in it overall.
Reply with just the number (in %).

compound: CN(C)CCN=c1cc(-c2ccccc2)oc2ccc(Cl)cc12
inhibition [%]: 3

compound: O=C(CCl)Nc1ccc(Sc2ccc(NC(=O)CCl)cc2)cc1
inhibition [%]: 6

compound: CC(C)(CCl)C(=O)Nc1ccc(Sc2ccc(F)cc2)cc1
inhibition [%]: 73.1

compound: Cc1cc(C)c2c(Cn3ccnc3)cc(=O)oc2c1
inhibition [%]: -1.5

compound: Cc1sc(NC(=O)C2=COCCO2)c(C#N)c1C
inhibition [%]: -0.9

// inhibition value for `COc1cc(NC(=O)c2[nH]cnc2C(N)=O)cc(C(=O)Nc2cccc(C(F)(F)F)c2)c1` : 0

// inhibition value for `CCNS(=O)(=O)c1ccc(NC(=O)c2cncc(Br)c2)cc1` : -1.5

// inhibition value for `O=C(Nc1nc2ccc([N+](=O)[O-])cc2s1)c1ccc(S(=O)(=O)N2CCCc3ccccc32)cc1` : 78.1

====

assay: blockers of Ca2+-induced mitochondrial swelling – biochemical, isolated mouse mitochondria, absorbance, primary screen (AID 602449); conditions: 30 min, at 10 µM, hits give high values;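 also: 0% = DMSO wells given calcium and 100% = 1 mM EGTA wells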
Among all 360,000 compounds or so, about 5,000 (1.4%) were called active. This excerpt belongs to a sample that is enriched for actives.
quantity measured: inhibition (%)
Reply with just the number (in %).

Known inhibition results, listed for orientation:
compound: C[C@H](CO)N1C[C@H](C)[C@@H](CN(C)S(=O)(=O)c2ccc(F)cc2)Oc2ccc(NC(=O)CCC(F)(F)F)cc2C1=O
quantity measured: inhibition
unit text: %
recorded measurement: 0.8

compound: O=C(CNCCC1=CCCCC1)Nc1ccccc1N1CCCCCC1
quantity measured: inhibition
unit text: %
recorded measurement: 11.6

compound: Cc1noc(C)c1S(=O)(=O)Nc1ccc(C(=O)N2CCN(c3ccc(F)cc3)CC2)cc1
quantity measured: inhibition
unit text: %
recorded measurement: -2

compound: CC1CCCC(C)N1C(=O)COC(=O)c1ccccc1C(=O)c1ccccc1 (stereo not given)
quantity measured: inhibition
unit text: %
recorded measurement: -1.2

compound: COc1ccc(S(=O)(=O)NCCCCOc2ccc(Cl)cc2)cc1
quantity measured: inhibition
unit text: %
recorded measurement: 98.5

// inhibition value for `Cc1cccnc1NC(=O)Cn1c(=O)oc2ccccc21` : -0.1

// inhibition value for `CN(C)c1nc2n(c(=O)n1)CCO2` : -0.8

// inhibition value for CCc1ccc(CN(C)C(C)C(=O)Nc2ccc(S(=O)(=O)N3CCCC3)cc2)cc1 (stereo not given) : 0.2

// inhibition value for `CC(C)(C)c1cc[n+](-c2[nH]c(=O)sc2/C=N/N=C(\[O-])c2ccccc2)cc1` : -1.9

// inhibition value for Cc1c(S(=O)(=O)NC(C)c2ccccc2)c(=O)n(C)c(=O)n1C (stereo not given) : 1.4

====

assay: blockers of Ca2+-induced mitochondrial swelling – biochemical, isolated mouse mitochondria, absorbance, primary screen (AID 602449); settings: 30 min, at 10 µM, hits give high values;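 also: 0% = DMSO wells given calcium and 100% = 1 mM EGTA wells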
The whole screen tested about 360,000 compounds, of which about 5,000 (1.4%) were called active. Many of the other results were omitted from the sample, so actives are more common in it than they were.
Reported inhibition values follow for various compounds
Reply with just the number (in %).

Known inhibition results, listed for orientation:
compound: N#CC1=C(N)Oc2cc(N)ccc2C1c1ccccc1 (stereo not drawn)
unit text: %
inhibition: -0.1
--
compound: O=C1c2ccccc2[C@@H]2C[C@@H](O)[C@H](Nc3ccccc3Cl)CCN12
unit text: %
inhibition: -0.5
--
compound: CC12CN3CCN(CC(C3)/C1=N\NC(=O)c1ccccc1N)C2
unit text: %
inhibition: 2.6
--
compound: CCCCc1ccc(NC(=O)NCc2cccnc2)cc1
unit text: %
inhibition: -0.3

// inhibition value for `Cc1oc2c(F)c(F)c(F)c(F)c2c1S(=O)(=O)Nc1cccc(C(F)(F)F)c1` : 83.3

// inhibition value for Cc1nn(Cc2ccccc2)c2c1C(c1ccccc1)C(C#N)=C(N)O2 (stereo not drawn) : 81.3

// inhibition value for CN(C)C(CNC(=O)CCCOc1ccccc1)c1ccco1 (stereo not drawn) : 1

// inhibition value for `COc1ccc(NS(=O)(=O)c2ccc(Oc3c(C#N)cccc3C#N)cc2)cc1` : 91.6

// inhibition value for Cc1ccc(CN(CC(=O)NCC2CCCO2)S(=O)(=O)c2ccc(C)cc2)cc1 (stereo not drawn) : 0.1

// inhibition value for CN(C)CCCN1C(=O)CSC1c1ccc([N+](=O)[O-])cc1 (stereo not drawn) : -0.2

// inhibition value for `O=C(OCc1nc2ccccc2[nH]1)C1CCCCC1` : -0.1

====

assay: blockers of Ca2+-induced mitochondrial swelling – biochemical, isolated mouse mitochondria, absorbance, primary screen (AID 602449); details: 30 min, at 10 µM, hits give high values;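 also: 0% = DMSO wells given calcium and 100% = 1 mM EGTA wells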
Among all 360,000 compounds or so, about 5,000 (1.4%) were called active. This excerpt belongs to a sample that is enriched for actives.
quantity measured: inhibition (%)
Reply with just the number (in %).

molecule: CCC(C(=O)NCc1ccccc1)n1c(Cc2cc(F)cc(F)c2)nc2ccccc21 (stereo not drawn)
unit text: %
recorded measurement: 2.2
--
molecule: N#C/C(=C\c1cccnc1)C(=O)Nc1ccc(SC(F)F)cc1
unit text: %
recorded measurement: 7.2
--
molecule: CN(CCc1ccccc1)C(=O)c1cccc(NC(=O)Cc2cccc(NC(=O)C3CCCN(C(=O)CCc4ccccc4)C3)c2)c1 (stereo not drawn)
unit text: %
recorded measurement: -0.3
--
molecule: O=C(Nc1nnc(S(=O)(=O)N2CCCCCC2)s1)c1cccc(Br)c1
unit text: %
recorded measurement: 79.7
--
molecule: Cc1cc2nc(SCCN3CCOCC3)[nH]c2cc1C
unit text: %
recorded measurement: 0
--
molecule: O=S(=O)(c1ccccc1)N1CCC(c2ccccc2)CC1
unit text: %
recorded measurement: 1.4
--
molecule: CCOC(=O)Cc1csc(SCC(=O)NC(C)C23CC4CC(CC(C4)C2)C3)n1 (stereo not drawn)
unit text: %
recorded measurement: -0.5
--
molecule: S=C(NCc1cccs1)Nc1ccc(Cl)cc1
unit text: %
recorded measurement: 23.7

// inhibition value for `Cc1cccc(NC(=S)Nc2ccc(Br)cc2)c1` : 96.8

// inhibition value for `O=C(NCCc1ccccn1)c1ccc(COc2ccccc2)o1` : -1.4

// inhibition value for COCCN1C(=O)C(=O)/C(=C(/O)c2ccc(S(=O)(=O)N3CCCCC3)cc2)C1c1ccc(OC)c(OC)c1 (stereo not drawn) : -0.3

// inhibition value for `Cc1cccc(NC(=S)Nc2ccc(Cl)c(Cl)c2)c1` : 101

// inhibition value for `O=C(CSc1ncn[nH]1)Nc1nc(-c2cccc([N+](=O)[O-])c2)cs1` : 8.3

// inhibition value for `NS(=O)(=O)c1ccc(NC(=S)N2CCCC2)cc1` : -0.2

// inhibition value for `Oc1c(Br)cccc1/C=N/Nc1c(F)c(F)c(F)c(F)c1F` : 102

// inhibition value for O=C1CCC(C(=O)N2CCCCO2)CN1Cc1cccc(C(F)(F)F)c1 (stereo not drawn) : 0.5

// inhibition value for `Cc1cc2cc3n(c2nn1)N=C(Cl)CC3` : 0.9

// inhibition value for COc1ccc(Cl)cc1NC(=O)COC(=O)C(CC(C)C)N1C(=O)C2CC=CCC2C1=O (stereo not drawn) : 1.6

// inhibition value for `O=C(COC(=O)c1ccc(NS(=O)(=O)c2cccs2)cc1O)Nc1ccc(F)cc1` : 4.7

// inhibition value for `O=C(Nc1nnc(S(=O)(=O)N2CCOCC2)s1)c1cccc(Br)c1` : 4.6

// inhibition value for `COc1ccc(NC(=S)Nc2ccc(S(N)(=O)=O)cc2)c(C)c1` : -2.1

// inhibition value for `NS(=O)(=O)c1ccc(NC(=S)Nc2ccc(Br)c(Cl)c2)cc1` : 102

// inhibition value for `CN(C)CCNC(=O)c1ccc(-c2cn3c(-c4ccc(Oc5ccccc5)cc4)cnc3cn2)cc1` : -1.4

// inhibition value for `COc1ccc(Cl)cc1NC(=O)CN(C)Cc1ccc(OC)c(OC)c1` : 0.9

// inhibition value for COc1cc(C(C(=O)NC2CCCC2)N(C(=O)c2ccco2)c2ccccc2C(C)=O)cc(OC)c1OC (stereo not drawn) : -1.2

// inhibition value for `O=C(Nc1cccc(F)c1)NC1CCCCCCC1` : 46.7

// inhibition value for `C/C(=N\NC(=S)NCc1ccccc1)c1ccc(Cl)cc1` : 3.5

// inhibition value for `C[C@H](CO)N1C[C@H](C)[C@@H](CN(C)C(=O)NC2CCCCC2)Oc2ccc(NC(=O)c3ccncc3)cc2C1=O` : -0.8

// inhibition value for `Cc1cc(C)nc(NS(=O)(=O)c2ccc(N/C=C\C(=O)c3cccs3)cc2)n1` : -0.9
